Recorded values, source the supplement of paper PMC10724198.

test system: Saccharomyces cerevisiae; experiment: protein stability index of tFT-peptide fusion (C-terminal peptide) (PSI (0-1 scale)); higher = more stable (slower turnover); details: genetic background: wild type; temperature: 30 C
assay.readout: protein stability index

VYSIESRVLGHN [OAC1 C-terminal 12 aa] ... 0.676
KLMVEEINLDID [FZO1 C-terminal 12 aa] ... 0.747
EDVKEEESKVGA [IOC4 C-terminal 12 aa] ... 0.664
QEGGDNTKIKQN [RNP1 C-terminal 12 aa] ... 0.638
VVNNRIFSGISK [RSM26 C-terminal 12 aa] ... 0.698

Each of the following entries comes with a recorded value; kindly state protein stability index for each.
1. PGGGGGSPLIFL [YHR165W-A C-terminal 12 aa]
2. GCVRSMLRDLQR [GCR2 C-terminal 12 aa]
3. NLDNLFMASSLI [AIM6 C-terminal 12 aa]
4. TTIKNIDILNRT [SMC4 C-terminal 12 aa]
5. FTFGTPIFLQLL [YFR010W-A C-terminal 12 aa]
6. DLVAQQVVQDGH [MYO2 C-terminal 12 aa]
7. KSEIDTLKQDQK [TYE7 C-terminal 12 aa]

Out:
0.728
0.686
0.658
0.694
0.579
0.707
0.666

###

system: Saccharomyces cerevisiae; test: protein stability index of tFT-peptide fusion (C-terminal peptide) (PSI (0-1 scale)); higher = more stable (slower turnover); conditions: genetic background: wild type; temperature: 30 C
Field: protein stability index. Provide a value for each of the sequences that follow.
One number for each entry.

Past entries and their recorded results:
FGVALGLRACAG ... 0.668
ISPQEPLVNTTN ... 0.665
VPSGVWGVLGFA ... 0.667
LLCLCSLPVFAS ... 0.356

Give protein stability index for all sequences that follow.
1. GRETGGGKSRRK
2. KHKRKGSERKQG
3. VGDGQVWGGQGG
4. LVSACIRFPPSH
5. LSPGSSPAVSGF

Out:
1. 0.687
2. 0.608
3. 0.669
4. 0.716
5. 0.722

###

Kindly state protein stability index for each of the entries shown.
tested on: Saccharomyces cerevisiae; assay: protein stability index of tFT-peptide fusion (C-terminal peptide) (PSI (0-1 scale)); higher = more stable (slower turnover); conditions: genetic background: wild type; temperature: 30 C
Give bare numbers.

// known answers, use as guide
NDQNKNKQNAKR [YIL156W-A C-terminal 12 aa] ... 0.639
SSVVSIPLREIL [YNR048W C-terminal 12 aa] ... 0.711
WNCFLSMRNASK [YOR292C C-terminal 12 aa] ... 0.72
DKSCIDIRSIIH [YAP5 C-terminal 12 aa] ... 0.726
DEDEDDSTTKEP [GLC8 C-terminal 12 aa] ... 0.7

In: Consider the sequence ISIEELAQYLKK [RIB3 C-terminal 12 aa] . State its measured protein stability index.
Out: 0.672

###

system: Saccharomyces cerevisiae; assay: protein stability index of tFT-peptide fusion (C-terminal peptide) (PSI (0-1 scale)); higher = more stable (slower turnover); settings: genetic background: wild type; temperature: 30 C
assay.readout: protein stability index
Answers are plain numbers.

Past entries and their recorded results:
NWRAAGQSGPES ... 0.67
LKMRIYEKNGKE ... 0.669
VPEVRRTDGRVR ... 0.74

The following sequences each have a reported value; give each one's protein stability index.
1. PPLSPLAPPSHP
2. TGSLLWGCFALL

Out:
[0.727, 0.623]
